Origin of values: ChEMBL document CHEMBL4706475

assay: in vivo; settings: mouse, po, 5 mg/kg
recordedMetric: bioavailability (%)
Report only the number, with the unit % understood.

Give the reported bioavailability for this molecule. COC(=O)c1cnc(Nc2cnc(C#N)cn2)cc1NCCC1CCNCC1
44

====

test: in vitro; conditions: mouse, liver microsomes
recordedMetric: metabolised at 0.5 h (%)
Kindly answer with a numeric value in %, unit omitted.

Query metabolised at 0.5 h for COC(=O)c1cnc(Nc2cnc(C#N)cn2)cc1NCCC1CCNCC1
26

====

test: in vivo; details: mouse, iv, 5 mg/kg
recordedMetric: half-life (h)
Unit h implied. Number only.

Note half-life for the compound shown: COC(=O)c1cnc(Nc2cnc(C#N)cn2)cc1NCCC1CCNCC1
11
